# pIC50 annotations
biological target: Presenilin-1 (Homo sapiens); assay: Modulation of human gamma-secretase presenilin-1 subunit expressed in CHO cells coexpressing human APP assessed as decrease in amyloid beta 42 generation after 24 hrs by ELISA; format: cell-based; details: read-out: IC50
Note on units: pIC50 is unitless, being -log10 of a concentration expressed in mol/L.

Cc1c(C)c2c(c(C)c1OCC(=O)O)CCC(C)(CCC[C@H](C)CCC[C@H](C)CCCC(C)C)O2 (stereo partly specified) : 4.96

Asked: Can you share its pIC50? I mean this compound: CCCCCCCCOc1c(C)c(C)c2c(c1C)CCC(C)(C(=O)O)O2 (stereo unspecified)
Given back: 4.24

Asked: Can you share its pIC50? I mean this compound: C/C(=C\COc1c(C)c(C)c2c(c1C)CCC(C)(C(=O)O)O2)CCC[C@H](C)CCC[C@H](C)CCCC(C)C (stereo partly specified)
Given back: 4.59

Asked: Can you share its pIC50? I mean this compound: CC(C)=CCC/C(C)=C/CC/C(C)=C/COC(=O)C1(C)CCc2c(C)c(OCC(=O)O)c(C)c(C)c2O1 (stereo unspecified)
Given back: 4.57

----------
assay: Micelle formation by compound at 5 to 100 uM by dynamic light scattering assay; type: physicochemical
recorded endpoint: Activity

Cc1c(C)c2c(c(C)c1OCC(=O)O)CCC(C)(CCC[C@H](C)CCC[C@H](C)CCCC(C)C)O2 (stereo partly specified) : Not Active
CCCCCCCCCCCOc1c(C)c(C)c2c(c1C)CCC(C)(C(=O)O)O2 (stereo unspecified) : Not Active
CCCCCCCCCCCCCCOC(=O)C1(C)CCc2c(C)c(OCC(=O)O)c(C)c(C)c2O1 (stereo unspecified) : Not Active
CC(C)=CCC/C(C)=C/CC/C(C)=C/Cn1c2ccc(Cl)cc2c2ccc(C(C)C(=O)O)cc21 (stereo unspecified) : Not Active
CCCCCCCCCCCCCCOc1c(C)c(C)c2c(c1C)CCC(C)(C(=O)O)O2 (stereo unspecified) : Not Active

Consider the additional compound presented here.
Asked: Can you share its Activity? I mean this compound: Cc1c(C)c2c(c(C)c1OCC(=O)O)CCC(C)(CCCC(C)CCCC(C)CCCC(C)C)O2 (stereo unspecified)
Given back: Not Active

----------
biological target: Presenilin-1 (Homo sapiens, UniProt P49768); test: Modulation of human gamma-secretase presenilin-1 subunit expressed in CHO cells coexpressing human APP assessed as decrease in amyloid beta 42 generation after 24 hrs by ELISA; assay type: cell-based; conditions: read-out: pIC50 (converted)
# IC50 annotations
Give a bare numeral; the unit µM is implied.

Cc1c(C)c2c(c(C)c1OCC(=O)O)CCC(C)(CCCC(C)CCCC(C)CCCC(C)C)O2 (stereo not given) : 31.6

Asked: Can you share its IC50? I mean this molecule: CCCCCCCCCCCOc1c(C)c(C)c2c(c1C)CCC(C)(C(=O)O)O2 (stereo not given)
Given back: 31.6

Asked: Can you share its IC50? I mean this molecule: CCCCCCCCCCCOC(=O)C1(C)CCc2c(C)c(OCC(=O)O)c(C)c(C)c2O1 (stereo not given)
Given back: 31.6

Asked: Can you share its IC50? I mean this molecule: CCCCCCCCOc1c(C)c(C)c2c(c1C)CCC(C)(C(=O)O)O2 (stereo not given)
Given back: 25.1

Asked: Can you share its IC50? I mean this molecule: CCCCCCCCCCCCCCOc1c(C)c(C)c2c(c1C)CCC(C)(C(=O)O)O2 (stereo not given)
Given back: 31.6

----------
# Activity annotations
target: Presenilin-1 (Homo sapiens); experiment: Modulation of human gamma-secretase presenilin-1 subunit expressed in CHO cells coexpressing human APP assessed as increase in amyloid beta 38 generation at EC50 after 24 hrs by ELISA relative to control; assay type: cell-based
Give a bare numeral; the unit % is implied.

CCCCCCCCCCCCCCOC(=O)C1(C)CCc2c(C)c(OCC(=O)O)c(C)c(C)c2O1 (stereo not drawn) : 95
CC(C)=CCC/C(C)=C/CC/C(C)=C/COc1c(C)c(C)c2c(c1C)CCC(C)(C(=O)O)O2 (stereo not drawn) : 35

Consider the additional compound presented here.
Asked: Query for Presenilin-1 (Homo sapiens): what Activity does the record show for C/C(=C\COc1c(C)c(C)c2c(c1C)CCC(C)(C(=O)O)O2)CCC[C@H](C)CCC[C@H](C)CCCC(C)C (stereo partly drawn) ?
Given back: 35

----------
target: Presenilin-1 (Homo sapiens); assay: Modulation of human gamma-secretase presenilin-1 subunit expressed in CHO cells coexpressing human APP assessed as decrease in amyloid beta 42 generation after 24 hrs by ELISA; type: cell-based; conditions: read-out: pIC50 (converted)
# IC50 annotations
Give a bare numeral; the unit µM is implied.

Past entries and their recorded results:
CC(C)=CCC/C(C)=C/CC/C(C)=C/Cn1c2ccc(Cl)cc2c2ccc(C(C)C(=O)O)cc21 (stereo not drawn) : 31.6
CC(C)=CCC/C(C)=C/CC/C(C)=C/COc1c(C)c(C)c2c(c1C)CCC(C)(C(=O)O)O2 (stereo not drawn) : 31.6
C/C(=C\COC(=O)C1(C)CCc2c(C)c(OCC(=O)O)c(C)c(C)c2O1)CCC[C@H](C)CCC[C@H](C)CCCC(C)C (stereo partly drawn) : 39.8
Cc1c(C)c2c(c(C)c1OCC(=O)O)CCC(C)(CCC[C@H](C)CCC[C@H](C)CCCC(C)C)O2 (stereo partly drawn) : 31.6
CC(C)=CCC/C(C)=C/CC/C(C)=C/COC(=O)C1(C)CCc2c(C)c(OCC(=O)O)c(C)c(C)c2O1 (stereo not drawn) : 39.8

Asked: Can you share its IC50? I mean this compound: C/C(=C\COc1c(C)c(C)c2c(c1C)CCC(C)(C(=O)O)O2)CCC[C@H](C)CCC[C@H](C)CCCC(C)C (stereo partly drawn)
Given back: 39.8

Asked: Can you share its IC50? I mean this compound: CCCCCCCCCCCCCCOC(=O)C1(C)CCc2c(C)c(OCC(=O)O)c(C)c(C)c2O1 (stereo not drawn)
Given back: 39.8

Asked: Can you share its IC50? I mean this compound: C/C(=C\Cn1c2ccc(Cl)cc2c2ccc(C(C)C(=O)O)cc21)CCC[C@H](C)CCC[C@H](C)CCCC(C)C (stereo partly drawn)
Given back: 39.8

----------
biological target: Presenilin-1 (Homo sapiens); assay: Modulation of human gamma-secretase presenilin-1 subunit expressed in CHO cells coexpressing human APP assessed as increase in amyloid beta 38 generation after 24 hrs by ELISA
# EC50 annotations
Give a bare numeral; the unit µM is implied.

Past entries and their recorded results:
C/C(=C\COc1c(C)c(C)c2c(c1C)CCC(C)(C(=O)O)O2)CCC[C@H](C)CCC[C@H](C)CCCC(C)C (stereo partly specified) : 10
CC(C)=CCC/C(C)=C/CC/C(C)=C/Cn1c2ccc(Cl)cc2c2ccc(C(C)C(=O)O)cc21 (stereo unspecified) : 2
CC(C)=CCC/C(C)=C/CC/C(C)=C/COC(=O)C1(C)CCc2c(C)c(OCC(=O)O)c(C)c(C)c2O1 (stereo unspecified) : 1
Cc1c(C)c2c(c(C)c1OCC(=O)O)CCC(C)(CCC[C@H](C)CCC[C@H](C)CCCC(C)C)O2 (stereo partly specified) : 6
C/C(=C\COC(=O)C1(C)CCc2c(C)c(OCC(=O)O)c(C)c(C)c2O1)CCC[C@H](C)CCC[C@H](C)CCCC(C)C (stereo partly specified) : 13

Asked: Can you share its EC50? I mean this molecule: CCCCCCCCCCCOC(=O)C1(C)CCc2c(C)c(OCC(=O)O)c(C)c(C)c2O1 (stereo unspecified)
Given back: 5

Asked: Can you share its EC50? I mean this molecule: CCCCCCCCCCCCCCOC(=O)C1(C)CCc2c(C)c(OCC(=O)O)c(C)c(C)c2O1 (stereo unspecified)
Given back: 6

Asked: Can you share its EC50? I mean this molecule: CCCCCCCCCCCCCCOc1c(C)c(C)c2c(c1C)CCC(C)(C(=O)O)O2 (stereo unspecified)
Given back: 9

Asked: Can you share its EC50? I mean this molecule: CCCCCCCCOC(=O)C1(C)CCc2c(C)c(OCC(=O)O)c(C)c(C)c2O1 (stereo unspecified)
Given back: 11

Asked: Can you share its EC50? I mean this molecule: CC(C)=CCC/C(C)=C/CC/C(C)=C/COc1c(C)c(C)c2c(c1C)CCC(C)(C(=O)O)O2 (stereo unspecified)
Given back: 8

Asked: Can you share its EC50? I mean this molecule: CCCCCCCCCCCOc1c(C)c(C)c2c(c1C)CCC(C)(C(=O)O)O2 (stereo unspecified)
Given back: 10

Asked: Can you share its EC50? I mean this molecule: Cc1c(C)c2c(c(C)c1OCC(=O)O)CCC(C)(CCCC(C)CCCC(C)CCCC(C)C)O2 (stereo unspecified)
Given back: 4

----------
assay: Micelle formation by compound at 5 to 100 uM by dynamic light scattering assay; type: physicochemical
recorded endpoint: Activity

Past entries and their recorded results:
CC(C)=CCC/C(C)=C/CC/C(C)=C/COc1c(C)c(C)c2c(c1C)CCC(C)(C(=O)O)O2 (stereo not drawn) : Not Active
CCCCCCCCOc1c(C)c(C)c2c(c1C)CCC(C)(C(=O)O)O2 (stereo not drawn) : Not Active
CC(C)=CCC/C(C)=C/CC/C(C)=C/COC(=O)C1(C)CCc2c(C)c(OCC(=O)O)c(C)c(C)c2O1 (stereo not drawn) : Not Active
CCCCCCCCOC(=O)C1(C)CCc2c(C)c(OCC(=O)O)c(C)c(C)c2O1 (stereo not drawn) : Not Active
C/C(=C\COc1c(C)c(C)c2c(c1C)CCC(C)(C(=O)O)O2)CCC[C@H](C)CCC[C@H](C)CCCC(C)C (stereo partly drawn) : Not Active
CCCCCCCCCCCOC(=O)C1(C)CCc2c(C)c(OCC(=O)O)c(C)c(C)c2O1 (stereo not drawn) : Not Active
C/C(=C\Cn1c2ccc(Cl)cc2c2ccc(C(C)C(=O)O)cc21)CCC[C@H](C)CCC[C@H](C)CCCC(C)C (stereo partly drawn) : Not Active

Consider the additional compound presented here.
Asked: Can you share its Activity? I mean this compound: C/C(=C\COC(=O)C1(C)CCc2c(C)c(OCC(=O)O)c(C)c(C)c2O1)CCC[C@H](C)CCC[C@H](C)CCCC(C)C (stereo partly drawn)
Given back: Not Active
